Test system: CAL-12T
Experiment: relative viability (nuclei count vs DMSO), 5 days (fraction); higher = more cells survive
Conditions: first compound 0.01 µM
Please use T for relative viability under 1 and F for everything else, ties included.

NC(=O)Nc1cc(-c2cccc(F)c2)sc1C(=O)N[C@H]1CCCNC1 [AZD7762] + Nc1nc2[nH]cc(CCc3ccc(C(=O)N[C@@H](CCC(=O)O)C(=O)O)cc3)c2c(=O)[nH]1 [Pemetrexed] (partner 0.2 µM); F

Exam item: Here's an entry: NC(=O)Nc1cc(-c2cccc(F)c2)sc1C(=O)N[C@H]1CCCNC1 [AZD7762] + CC(C)C[C@H](NC(=O)[C@H](Cc1ccccc1)NC(=O)c1cnccn1)B(O)O [Bortezomib] (partner 0.002 µM) . Is its relative viability below 1?
Marked response: T

Exam item: Could you please tell me whether relative viability recorded for NC(=O)Nc1cc(-c2cccc(F)c2)sc1C(=O)N[C@H]1CCCNC1 [AZD7762] + N=C(N)NC(=N)NCCc1ccccc1 [Phenformin] (partner 250 µM) is less than 1?
Marked response: T

Exam item: Report whether reported relative viability is lower than 1 (strictly) for NC(=O)Nc1cc(-c2cccc(F)c2)sc1C(=O)N[C@H]1CCCNC1 [AZD7762] + COc1cccc2cc(-c3nc([C@H]4CC[C@H](C(=O)O)CC4)n4ncnc(N)c34)[nH]c12 [OSI-027] (partner 0.5 µM)
Marked response: T

Exam item: Consider the compound NC(=O)Nc1cc(-c2cccc(F)c2)sc1C(=O)N[C@H]1CCCNC1 [AZD7762] + CC1(C)CCC(c2ccc(Cl)cc2)=C(CN2CCN(c3ccc(C(=O)NS(=O)(=O)c4ccc(N[C@H](CCN5CCOCC5)CSc5ccccc5)c(S(=O)(=O)C(F)(F)F)c4)cc3)CC2)C1 [Navitoclax] (partner 0.5 µM) . Is its relative viability strictly less than 1?
Marked response: F

Exam item: In the record for NC(=O)Nc1cc(-c2cccc(F)c2)sc1C(=O)N[C@H]1CCCNC1 [AZD7762] + Cc1nc(NC(=O)N2CCC[C@H]2C(N)=O)sc1-c1ccnc(C(C)(C)C(F)(F)F)c1 [Alpelisib] (partner 2 µM) , is relative viability less than 1?
Marked response: F
